ASSAY_INFO: Pharmacokinetic parameters following intravenous and oral administration in rats
Format: in vivo, male Wistar rats
PARTICULARS: male, Wistar, rat, plasma, iv, intravenous administration, read-out: t½ (converted)
Structures can show the parent of a compound that is named as a salt.
READOUT_NAME: half-life (h)

{"columns": ["MOLECULE", "UNIT_STRING", "READOUT_NUMBER"],
 "data": [
  ["CC(C)CN1CCN(c2ccc(-c3ccc(Cl)cc3N3CCCC(n4ncc(C(=O)O)c4C(F)F)C3)cc2)CC1 (single isomer, unassigned) [Example 1, hydrochloride]", "h", 1.64],
  ["O=C(O)c1cnn(C2CCCN(c3cc(Cl)ccc3-c3ccc(N4CCN(CC5CC5)CC4)cc3)C2)c1C(F)(F)F (single isomer, unassigned) [Example 10, hydrochloride]", "h", 1.89],
  ["CC(C)CN1CCN(c2ccc(-c3ccc(Cl)cc3N3CCC[C@@H](n4ncc(C(=O)O)c4C(F)F)C3)cc2)CC1 (single isomer, unassigned)", "h", 3.13]
]}
